Reported Correlation in clearance with Morphine is given for each of the following molecules.
assay: Integrated population pharmacokinetic model; type: in vivo, human; settings: interindividual variability in clearance, common eta
MEASURED PARAMETER: Correlation in clearance with Morphine

{"columns": ["MOLECULE", "REPORTED RESULT"],
 "data": [
  ["CNC(C)C1CCC(N)C(OC2C(N)CC(N)C(OC3OCC(C)(O)C(NC)C3O)C2O)O1 (stereo not shown)", "45.9%"],
  ["CN1CC[C@]23c4c5ccc(O[C@@H]6O[C@H](C(=O)O)[C@@H](O)[C@H](O)[C@H]6O)c4O[C@H]2[C@@H](O)C=C[C@H]3[C@H]1C5 [M3G, morphine‐3‐glucuronide]", "35.4%"],
  ["CN1CC[C@]23c4c5ccc(O)c4O[C@H]2[C@@H](O[C@@H]2O[C@H](C(=O)O)[C@@H](O)[C@H](O)[C@H]2O)C=C[C@H]3[C@H]1C5 [M6G, morphine‐6‐glucuronide]", "32.5%"],
  ["Cc1ncc2n1-c1ccc(Cl)cc1C(c1ccccc1F)=NC2", "62.2%"],
  ["CC1(C)S[C@@H]2[C@H](NC(=O)Cc3ccccc3)C(=O)N2[C@H]1C(=O)O", "58.6%"],
  ["O=C(O)[C@H]1O[C@@H](OCc2ncc3n2-c2ccc(Cl)cc2C(c2ccccc2F)=NC3)[C@H](O)[C@@H](O)[C@@H]1O [HMG, hydroxymidazolam glucuronide]", "62.6%"],
  ["OCc1ncc2n1-c1ccc(Cl)cc1C(c1ccccc1F)=NC2 [OHM, 1‐hydroxymidazolam]", "63.3%"]
]}

Where do these numbers come from? They come from paper PMC7689752.
